B1: TPR t1 (parent)
chain: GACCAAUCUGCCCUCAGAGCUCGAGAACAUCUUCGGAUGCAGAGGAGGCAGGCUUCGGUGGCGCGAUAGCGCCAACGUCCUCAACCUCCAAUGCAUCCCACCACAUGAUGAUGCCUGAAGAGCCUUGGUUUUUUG

Variants of: B1
Test: polymerase ribozyme fitness, log enrichment relative to wild type (log ratio); higher = more active; in vitro selection for triplet polymerase activity
endpoint label: polymerase ribozyme fitness (log ratio)
Reply with the value as a number alone.

Inquiry: What measured polymerase ribozyme fitness (log ratio) goes with U14C C15U C73G ?
Reply text: -3.76

Inquiry: What measured polymerase ribozyme fitness (log ratio) goes with U9C C72U ?
Reply text: 0.343

Inquiry: What measured polymerase ribozyme fitness (log ratio) goes with C40A G42U G45U C56G C73U ?
Reply text: -4.17

Inquiry: What measured polymerase ribozyme fitness (log ratio) goes with C40A C82U ?
Reply text: -1.77

Inquiry: What measured polymerase ribozyme fitness (log ratio) goes with U14G G61C ?
Reply text: -4.21

Inquiry: What measured polymerase ribozyme fitness (log ratio) goes with C11A C40U C49U C56A C123G U129A ?
Reply text: -3.2

Inquiry: What measured polymerase ribozyme fitness (log ratio) goes with A5G G60A ?
Reply text: -0.271

Inquiry: What measured polymerase ribozyme fitness (log ratio) goes with A6G C11U A29G G52A C76A C85A U125G ?
Reply text: -5.55

Further cases:
Inquiry: What measured polymerase ribozyme fitness (log ratio) goes with G17A G69C ?
Reply text: -3.95

Inquiry: What measured polymerase ribozyme fitness (log ratio) goes with A75G U129A ?
Reply text: -0.79

Inquiry: What measured polymerase ribozyme fitness (log ratio) goes with C34G U59A G117U U129G ?
Reply text: -8.01

Inquiry: What measured polymerase ribozyme fitness (log ratio) goes with C34U A83C ?
Reply text: -5.74

Inquiry: What measured polymerase ribozyme fitness (log ratio) goes with G63C C70U A90G ?
Reply text: 0.0962

Inquiry: What measured polymerase ribozyme fitness (log ratio) goes with C3G C49A G57U C64U G120U G128U ?
Reply text: -1.81

Inquiry: What measured polymerase ribozyme fitness (log ratio) goes with G48U C72G C86A U125G G127C ?
Reply text: -4.47

Numbers sourced from the RNAGym collection of RNA variant scans (doi:10.1073/pnas.2313332121).
